experimental_protocol: Pharmacokinetics after intravenous and oral administration
study_conditions: rat, in vivo, po, 50 mg/kg
reported_metric: Cmax
Could you give the number and then its unit, please?

Item: O=C(Nc1ccc(OC(F)(F)F)c(F)c1)NC1CCC(Oc2ccc(C=C3SC(=O)NC3=O)cc2)CC1 (stereo not shown) | Cmax: 1140 nM

* * *

Entries below carry reported log10 of IC50 on recombinant human sEH (HsEH) (Homo sapiens, UniProt P34913).
Sequence (P34913 whole entry): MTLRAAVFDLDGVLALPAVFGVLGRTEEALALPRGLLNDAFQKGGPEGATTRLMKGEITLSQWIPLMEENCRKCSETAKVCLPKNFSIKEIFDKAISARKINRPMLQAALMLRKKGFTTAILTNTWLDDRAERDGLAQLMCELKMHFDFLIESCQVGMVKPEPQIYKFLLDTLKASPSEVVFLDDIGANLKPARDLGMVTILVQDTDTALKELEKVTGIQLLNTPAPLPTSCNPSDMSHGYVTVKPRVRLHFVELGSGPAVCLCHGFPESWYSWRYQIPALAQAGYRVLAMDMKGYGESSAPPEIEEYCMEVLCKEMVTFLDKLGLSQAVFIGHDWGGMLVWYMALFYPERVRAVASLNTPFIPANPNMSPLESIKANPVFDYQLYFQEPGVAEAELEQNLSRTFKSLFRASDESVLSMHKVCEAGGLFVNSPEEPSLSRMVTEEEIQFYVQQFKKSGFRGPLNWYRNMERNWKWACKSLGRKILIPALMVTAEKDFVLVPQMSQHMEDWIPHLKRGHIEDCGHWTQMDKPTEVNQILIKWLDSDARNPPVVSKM
Scale: decimal log of IC50, IC50 in nM.

Looking up CC12CC3CC(C)(C1)CC(NC(=O)N[C@H]1CC[C@H](Oc4ccc(CC5SC(=O)NC5=O)cc4)CC1)(C3)C2 (stereo partly shown) [SP-A01] , I see its log10 of IC50 listed as -0.26

The recorded log10 of IC50 for CCOC(=O)CC(=O)Nc1ccc(O[C@H]2CC[C@H](NC(=O)Nc3ccc(OC(F)(F)F)c(F)c3)CC2)cc1 [SP-C01s] is -0.52

The measured log10 of IC50 associated with CC12CC3CC(C)(C1)CC(NC(=O)N1CCC(Oc4ccc(CC5SC(=O)NC5=O)cc4)CC1)(C3)C2 (stereo not shown) [SP-A02] reads 1.92

Entry under test: O=C(Nc1ccc(OC(F)(F)F)c(F)c1)N[C@H]1CC[C@H](Oc2ccc(/C=C3\SC(=O)NC3=O)cc2)CC1 [SP-B06] . Its log10 of IC50 was -0.16

Continuing:
Form field log10 of IC50, entry O=C1NC(=O)/C(=C/c2ccc(OC3CCN(C(=O)Nc4ccc(OC(F)(F)F)cc4)CC3)cc2)N1 [SP-B04] : 2.19

Looking up CC12CC3CC(C)(C1)CC(NC(=O)N1CCC(Oc4ccc(/C=C5\SC(=O)NC5=O)cc4)CC1)(C3)C2 [SP-B02] , I see its log10 of IC50 listed as 1.30

Reported log10 of IC50 ( O=C(Nc1ccc(OC(F)(F)F)c(F)c1)NC1CCC(Oc2ccc(C=C3SC(=O)NC3=O)cc2)CC1 (stereo not shown) [SP-B07] ) = -1.22

* * *

Entries annotated with measured pIC50
system_name: recombinant human sEH (HsEH) (Homo sapiens, UniProt P34913)
In plain terms, pIC50 is the concentration in mol/L turned into minus its base-10 logarithm.

Lab note: compound CC12CC3CC(C)(C1)CC(NC(=O)N1CCC(Oc4ccc(/C=C5\NC(=O)NC5=O)cc4)CC1)(C3)C2 tested on recombinant human sEH (HsEH) (Homo sapiens, UniProt P34913); recorded pIC50 was 6.92

Value sought: pIC50, system recombinant human sEH (HsEH) (Homo sapiens, UniProt P34913), item NC(=O)c1ccc(O[C@H]2CC[C@H](NC(=O)Nc3ccc(OC(F)(F)F)cc3)CC2)cc1 [SP-C01i] . Result: 9.52

Consider the record given below.
Known value: recombinant human sEH (HsEH) (Homo sapiens, UniProt P34913) pIC50 of the compound O=C(Nc1ccc(OC(F)(F)F)c(F)c1)N[C@H]1CC[C@H](Oc2ccc(CC3SC(=O)NC3=O)cc2)CC1 (stereo partly drawn) equals 10.15

* * *

experimental_protocol: Stability of liver microsomes
study_conditions: rat, microsomes, half-life (t1/2) in rat liver microsomes, rat liver microsomes
reported_metric: half-life (h)
Give the value, in units of h, as a plain number.

half-life recorded for this compound, O=C(Nc1ccc(OC(F)(F)F)c(F)c1)NC1CCC(Oc2ccc(C=C3SC(=O)NC3=O)cc2)CC1 (stereo not shown) , is 5.5

* * *

system_name: PPARγ (Homo sapiens)
experimental_protocol: PPARγ agonist activity test (luciferase reporter gene)
Measured EC50 accompanies every entry in the list below.
# output: number + unit

Sample O=C(Nc1ccc(OC(F)(F)F)c(F)c1)NC1CCC(Oc2ccc(C=C3SC(=O)NC3=O)cc2)CC1 (stereo not drawn) , system: PPARγ (Homo sapiens). Its EC50 is 1.43 µM

Test item O=C(Nc1ccc(OC(F)(F)F)c(F)c1)N[C@H]1CC[C@H](Oc2ccc(CC3SC(=O)NC3=O)cc2)CC1 (stereo partly drawn) ; PPARγ (Homo sapiens); reported EC50 was 7.75 µM

I looked up CC12CC3CC(C)(C1)CC(NC(=O)N[C@H]1CC[C@H](Oc4ccc(CC5SC(=O)NC5=O)cc4)CC1)(C3)C2 (stereo partly drawn) and its EC50 for PPARγ (Homo sapiens) was 6.77 µM

* * *

experimental_protocol: Pharmacokinetics after intravenous and oral administration
study_conditions: rat, in vivo, po, 50 mg/kg
reported_metric: AUC(0-t) at 8 h (µM·h)
State just the number; it will be interpreted in µM·h.

The measured AUC(0-t) at 8 h associated with O=C(Nc1ccc(OC(F)(F)F)c(F)c1)NC1CCC(Oc2ccc(C=C3SC(=O)NC3=O)cc2)CC1 (stereo not shown) [SP-B07] reads 13.8

* * *

system_name: PPARγ (Homo sapiens, UniProt P37231)
Sequence (P37231 204-505): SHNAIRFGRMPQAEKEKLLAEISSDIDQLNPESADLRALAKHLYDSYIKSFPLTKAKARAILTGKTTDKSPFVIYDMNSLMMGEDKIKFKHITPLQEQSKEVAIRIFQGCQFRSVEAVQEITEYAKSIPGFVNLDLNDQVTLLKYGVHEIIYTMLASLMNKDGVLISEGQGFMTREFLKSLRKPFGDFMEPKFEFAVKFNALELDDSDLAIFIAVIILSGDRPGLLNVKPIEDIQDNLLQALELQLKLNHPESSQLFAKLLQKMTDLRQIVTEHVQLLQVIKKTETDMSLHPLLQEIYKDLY
experimental_protocol: PPARγ agonist activity test (luciferase reporter gene)
Assay type: cell-based
study_conditions: relative to Rosiglitazone
Binned PPARγ (compared with Rosiglitazone, %); ranges: low end: < 10%; middle: ≥ 10% and < 20%; high end: ≥ 20%

Illustrative cases are given below, each with its answer.
Challenge: Category lookup for the compound O=C(Nc1ccc(OC(F)(F)F)c(F)c1)N[C@H]1CC[C@H](Oc2ccc(CC3SC(=O)NC3=O)cc2)CC1 (some centres unmarked) [SP-A07]
Response given: high end

Challenge: Any idea which band NC(=O)c1ccc(O[C@H]2CC[C@H](NC(=O)Nc3ccc(OC(F)(F)F)cc3)CC2)cc1 [SP-C01i] is in?
Response given: middle

Challenge: Hey, which category is O=C(Nc1ccc(OC(F)(F)F)c(F)c1)N[C@H]1CC[C@H](Oc2ccc(/C=C3\SC(=O)NC3=O)cc2)CC1 [SP-B06] in, do you know?
Response given: middle

Challenge: For CC(=O)Nc1ccc(O[C@H]2CC[C@H](NC(=O)Nc3ccc(OC(F)(F)F)c(F)c3)CC2)cc1 [SP-C01k] , which PPARγ (compared with Rosiglitazone, %) bin applies?
Response given: low end

Challenge: Please indicate the class for COC(=O)CN1C(=O)S/C(=C\c2ccc(O[C@H]3CC[C@H](NC(=O)Nc4ccc(OC(F)(F)F)cc4)CC3)cc2)C1=O [SP-D01] based on its PPARγ (compared with Rosiglitazone, %).
Response given: low end

Challenge: Class (by measured PPARγ (compared with Rosiglitazone, %)) for CCC(=O)Nc1ccc(OC2CCCC(NC(=O)NC34CC5CC(C)(CC(C)(C5)C3)C4)C2)cc1 (centres unmarked) [SP-C01m]
Response given: low end

Others:
Challenge: Form: Item = O=C1NC(=O)/C(=C/c2ccc(OC3CCN(C(=O)Nc4ccc(OC(F)(F)F)cc4)CC3)cc2)N1 [SP-B04] ; Class = ?
Response given: low end

Challenge: For this compound, which bin applies? CC12CC3CC(C)(C1)CC(NC(=O)N[C@H]1CC[C@H](Oc4ccc(CC5SC(=O)NC5=O)cc4)CC1)(C3)C2 (some centres unmarked) [SP-A01]
Response given: high end

Challenge: Could you place CC12CC3CC(C)(C1)CC(NC(=O)N1CCC(Oc4ccc(CC5SC(=O)NC5=O)cc4)CC1)(C3)C2 (centres unmarked) [SP-A02] in its proper category? Many thanks.
Response given: high end

Challenge: Which bin, given its PPARγ (compared with Rosiglitazone, %), does CC12CC3CC(C)(C1)CC(NC(=O)N1CCC(Oc4ccc(/C=C5\SC(=O)NC5=O)cc4)CC1)(C3)C2 [SP-B02] occupy?
Response given: middle

* * *

experimental_protocol: Pharmacokinetics after intravenous and oral administration
study_conditions: rat, in vivo, iv, 10 mg/kg
reported_metric: Cmax (µM)
Write down the numeric answer in µM and omit the unit.

The compound listed as O=C(Nc1ccc(OC(F)(F)F)c(F)c1)NC1CCC(Oc2ccc(C=C3SC(=O)NC3=O)cc2)CC1 (stereo not shown) has a reported Cmax of 3.29

* * *

experimental_protocol: Stability of liver microsomes
study_conditions: rat, microsomes, t1/2, rat liver microsomes, table
reported_metric: half-life (h)
Expressed in h, but write only the number.

// sample O=C(Nc1ccc(OC(F)(F)F)c(F)c1)NC1CCC(Oc2ccc(C=C3SC(=O)NC3=O)cc2)CC1 (stereo not shown) , its half-life was 5.5
